assayed.target: Bs-CspB P58A (Bacillus subtilis, UniProt P32081 1-67, P58A)
experiment.description: tryptophan fluorescence quenching
quantity.name: pKd
Give bare numbers, as −log10 of the molar value.

For this binder ( TTTTTTT (ssDNA) [dT7] ), measured pKd is 8.89
